molecular target: ATM (Homo sapiens, UniProt Q13315); construct: detecting phosphorylation of Chk2 in a human non-small cell lung cancer cell line NCI-H460 (ATCC company); host or cells: NCI-H460 human non-small cell lung cancer cells; test: ATM inhibition test (phosphorylation of Chk2 generated by ionizing radiation, AlphaScreen SureFire); type: cell-based; conditions: phosphorylated Chk2 in NCI-H460 cells, ionizing radiation 8Gy, 1 hour after test compound treatment; read-out: ATM inhibitory activity
Sequence (Q13315 whole entry): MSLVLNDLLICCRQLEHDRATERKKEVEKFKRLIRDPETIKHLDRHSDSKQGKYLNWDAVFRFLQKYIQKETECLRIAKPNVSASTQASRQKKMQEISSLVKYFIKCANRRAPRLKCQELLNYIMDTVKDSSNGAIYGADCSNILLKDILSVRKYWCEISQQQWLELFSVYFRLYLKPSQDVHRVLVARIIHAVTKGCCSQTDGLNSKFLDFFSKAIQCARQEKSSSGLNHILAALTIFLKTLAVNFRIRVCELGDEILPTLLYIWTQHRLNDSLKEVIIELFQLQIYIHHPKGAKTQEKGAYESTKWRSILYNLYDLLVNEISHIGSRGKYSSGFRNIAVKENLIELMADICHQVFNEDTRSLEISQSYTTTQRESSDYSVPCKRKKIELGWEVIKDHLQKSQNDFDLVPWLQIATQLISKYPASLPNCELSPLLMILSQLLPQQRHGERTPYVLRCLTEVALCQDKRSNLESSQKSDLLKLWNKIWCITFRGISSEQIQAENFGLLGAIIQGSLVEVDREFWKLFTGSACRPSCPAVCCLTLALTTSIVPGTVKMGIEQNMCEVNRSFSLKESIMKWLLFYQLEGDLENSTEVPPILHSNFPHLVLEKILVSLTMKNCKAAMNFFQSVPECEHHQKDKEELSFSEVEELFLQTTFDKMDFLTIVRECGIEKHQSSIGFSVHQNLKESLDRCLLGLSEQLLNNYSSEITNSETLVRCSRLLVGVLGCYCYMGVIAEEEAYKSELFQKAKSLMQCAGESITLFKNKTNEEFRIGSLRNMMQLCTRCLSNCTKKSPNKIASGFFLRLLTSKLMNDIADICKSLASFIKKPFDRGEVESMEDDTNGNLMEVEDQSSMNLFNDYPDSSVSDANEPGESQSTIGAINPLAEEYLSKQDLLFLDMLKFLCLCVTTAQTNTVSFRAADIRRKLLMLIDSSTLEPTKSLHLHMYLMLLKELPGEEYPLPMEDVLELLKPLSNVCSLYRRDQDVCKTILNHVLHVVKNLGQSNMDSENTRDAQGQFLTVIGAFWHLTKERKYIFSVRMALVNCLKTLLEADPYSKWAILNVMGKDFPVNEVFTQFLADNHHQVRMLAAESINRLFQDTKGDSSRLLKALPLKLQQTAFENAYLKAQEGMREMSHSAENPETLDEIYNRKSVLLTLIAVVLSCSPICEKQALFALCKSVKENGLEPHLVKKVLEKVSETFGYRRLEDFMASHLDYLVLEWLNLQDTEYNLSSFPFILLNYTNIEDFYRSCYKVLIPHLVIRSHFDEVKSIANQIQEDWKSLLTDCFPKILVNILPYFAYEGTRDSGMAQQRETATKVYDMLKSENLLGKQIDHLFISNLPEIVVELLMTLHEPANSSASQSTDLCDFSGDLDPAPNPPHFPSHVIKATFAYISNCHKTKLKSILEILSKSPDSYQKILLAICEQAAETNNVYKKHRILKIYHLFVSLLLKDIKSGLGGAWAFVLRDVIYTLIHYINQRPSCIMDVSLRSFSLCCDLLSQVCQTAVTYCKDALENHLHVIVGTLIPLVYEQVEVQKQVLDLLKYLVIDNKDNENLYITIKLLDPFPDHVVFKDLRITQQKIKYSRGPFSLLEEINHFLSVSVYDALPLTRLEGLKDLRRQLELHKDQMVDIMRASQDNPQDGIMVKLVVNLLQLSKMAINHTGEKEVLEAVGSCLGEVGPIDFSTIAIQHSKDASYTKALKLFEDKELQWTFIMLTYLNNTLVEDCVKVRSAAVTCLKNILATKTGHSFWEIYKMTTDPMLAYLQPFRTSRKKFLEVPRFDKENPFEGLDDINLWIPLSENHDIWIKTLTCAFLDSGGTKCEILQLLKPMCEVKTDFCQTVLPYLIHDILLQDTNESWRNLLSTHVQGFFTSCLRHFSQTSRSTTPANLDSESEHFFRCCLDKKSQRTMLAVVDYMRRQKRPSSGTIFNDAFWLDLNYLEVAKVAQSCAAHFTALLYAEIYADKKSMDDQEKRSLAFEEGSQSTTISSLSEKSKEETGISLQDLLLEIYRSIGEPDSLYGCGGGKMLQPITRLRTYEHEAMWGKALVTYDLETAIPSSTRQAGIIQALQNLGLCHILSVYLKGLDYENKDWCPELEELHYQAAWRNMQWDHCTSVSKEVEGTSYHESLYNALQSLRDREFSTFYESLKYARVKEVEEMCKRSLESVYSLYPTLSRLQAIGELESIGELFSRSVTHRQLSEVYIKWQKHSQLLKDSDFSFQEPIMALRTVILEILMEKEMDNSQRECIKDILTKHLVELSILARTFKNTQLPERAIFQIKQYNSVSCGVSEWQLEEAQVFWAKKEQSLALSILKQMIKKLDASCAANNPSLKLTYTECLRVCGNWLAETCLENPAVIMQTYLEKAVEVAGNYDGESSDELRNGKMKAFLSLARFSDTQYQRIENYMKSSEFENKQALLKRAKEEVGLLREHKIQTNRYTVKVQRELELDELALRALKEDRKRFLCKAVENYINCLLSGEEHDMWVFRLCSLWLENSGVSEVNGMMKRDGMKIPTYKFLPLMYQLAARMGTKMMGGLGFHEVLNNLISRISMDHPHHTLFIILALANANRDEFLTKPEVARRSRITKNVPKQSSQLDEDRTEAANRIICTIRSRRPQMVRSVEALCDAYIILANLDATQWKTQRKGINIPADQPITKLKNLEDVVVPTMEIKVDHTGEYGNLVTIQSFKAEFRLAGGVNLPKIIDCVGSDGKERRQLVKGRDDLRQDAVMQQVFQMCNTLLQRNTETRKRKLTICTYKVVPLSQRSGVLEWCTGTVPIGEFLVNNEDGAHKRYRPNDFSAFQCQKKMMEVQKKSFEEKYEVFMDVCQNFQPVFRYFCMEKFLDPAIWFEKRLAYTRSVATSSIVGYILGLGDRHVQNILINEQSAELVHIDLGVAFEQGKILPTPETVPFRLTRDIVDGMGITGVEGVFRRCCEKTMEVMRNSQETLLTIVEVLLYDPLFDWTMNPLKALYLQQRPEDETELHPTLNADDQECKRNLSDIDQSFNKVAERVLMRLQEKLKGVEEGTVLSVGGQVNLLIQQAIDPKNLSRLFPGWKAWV
measuredQuantity: IC50

Indicate the recorded IC50 value for this compound: `Cc1ccc(CN2CCC(Nc3ccc4c(c3)Cc3cccc(-c5cc(N6CCOCC6)cc(=O)[nH]5)c3O4)CC2)cn1` 100 to 500 nM

Quick one: give measured IC50 for `COCCN1CCC(Nc2ccc3c(c2)Sc2cccc(-c4cc(N5CCOCC5)cc(=O)[nH]4)c2S3)CC1` < 100 nM

Identify the reported IC50 for the following entry. `CC(C)(C)OC(=O)n1cc(-c2cncc(CNc3ccc4c(c3)Sc3cccc(-c5cc(N6CCOCC6)cc(=O)[nH]5)c3S4)c2)cn1` < 100 nM
